molecular target: 11β-HSD1 (Homo sapiens, UniProt P28845); construct: detecting cortisol generated from cortisterone by human liver microsomes; from tissue; host or cells: human liver microsomes; test: In vitro inhibition of 11β-HSD1, HTRF detection of cortisol generated from cortisone by human liver microsomes; format: biochemical; details: 11β-HSD IC50 (nM), 1 hour at 37° C., pH 6.0, NADPH 200 μM, cortisone 80 nM, inhibition relative to carbenoxolone signal
Sequence (P28845 whole entry): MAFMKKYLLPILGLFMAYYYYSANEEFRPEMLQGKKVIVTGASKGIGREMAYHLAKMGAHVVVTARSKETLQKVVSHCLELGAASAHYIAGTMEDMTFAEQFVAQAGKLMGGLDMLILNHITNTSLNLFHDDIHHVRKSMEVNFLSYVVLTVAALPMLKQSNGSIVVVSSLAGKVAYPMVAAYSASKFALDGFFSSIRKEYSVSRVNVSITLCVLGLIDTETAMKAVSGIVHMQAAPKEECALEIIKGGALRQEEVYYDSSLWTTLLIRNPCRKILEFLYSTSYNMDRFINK
Measured IC50 of individual entries

{"columns": ["Molecule", "System", "IC50, nM"],
 "data": [
  ["Cc1cc2nc[nH]c2cc1C(=O)N1CC[C@@]2(C)c3cccc(O)c3C[C@@H]1C2(C)C [Example 210]", "11β-HSD1 (Homo sapiens, UniProt P28845)", 68],
  ["CC1(C)[C@H]2Cc3c(cccc3S(C)(=O)=O)[C@]1(C)CCN2C(=O)c1ccc2nc[nH]c2c1 [Example 234]", "11β-HSD1 (Homo sapiens, UniProt P28845)", 3120],
  ["CC1(C)[C@H]2Cc3c(O)cccc3[C@]1(C)CCN2C(=O)c1cncn1-c1ccccc1 [Example 218]", "11β-HSD1 (Homo sapiens, UniProt P28845)", 2710],
  ["CC1(C)[C@H]2Cc3ccccc3[C@]1(C)CCN2C(=O)c1cccc2ccccc12 [Example 284]", "11β-HSD1 (Homo sapiens, UniProt P28845)", 666]
]}

---

// reported IC50 for each item listed
target: 11β-HSD1 (Homo sapiens); construct: detecting cortisol generated from cortisterone by human liver microsomes; from tissue; host or cells: human liver microsomes; experiment: In vitro inhibition of 11β-HSD1, HTRF detection of cortisol generated from cortisone by human liver microsomes; format: biochemical; conditions: 11β-HSD IC50 (nM), 1 hour at 37° C., pH 6.0, NADPH 200 μM, cortisone 80 nM, inhibition relative to carbenoxolone signal

{"columns": ["Molecule", "IC50, nM"],
 "data": [
  ["CC(O)(c1cccc(C(=O)N2CC[C@@]3(C)c4cccc(O)c4C[C@@H]2C3(C)C)c1)C(F)(F)F (stereo partly shown) [Example 260]", 181],
  ["CC1(C)[C@H]2Cc3cc4nc(C5CC5)[nH]c4cc3[C@]1(C)CCN2C(=O)c1ccc2nc[nH]c2c1 [Example 271]", 50],
  ["COc1cccc2c1CC1N(C(=O)c3ccc4nc[nH]c4c3)CCC2C1(C)C (stereo not shown) [Example 146]", 384],
  ["COC(=O)c1cc(F)cc(C(=O)N2CC[C@@]3(C)c4cccc(O)c4C[C@@H]2C3(C)C)c1 [Example 43]", 1760]
]}

---

Target: 11β-HSD1 (Homo sapiens)
Construct: detecting cortisol generated from cortisterone by human liver microsomes; from tissue; host or cells: human liver microsomes
Assay: In vitro inhibition of 11β-HSD1, HTRF detection of cortisol generated from cortisone by human liver microsomes
Type: biochemical
Details: 11β-HSD IC50 (nM), 1 hour at 37° C., pH 6.0, NADPH 200 μM, cortisone 80 nM, inhibition relative to carbenoxolone signal
Method: Cortisol generated in the reaction is then detected with a competitive immunoassay, involving two HTRF conjugates: cortisol linked to XL665 and anti-cortisol antibody labeled with Europium cryptate. The incubation period for detection reaction was typically 2 hours. […] The ratio of the two emission signals is then calculated (Em665*10000/Em615). […] Percent inhibition of each compound was determined relative to the carbenoxolone signal and IC50 curves were generated.
Property name: IC50 (nM)

{"columns": ["Compound", "Measured"],
 "data": [
  ["C[C@@H]1[C@H]2Cc3ccc(C(N)=O)cc3[C@]1(C)CCN2C(=O)c1ccc2nc[nH]c2c1", 335],
  ["COC(=O)c1ccc(C(=O)N2CC[C@@]3(C)c4cccc(O)c4C[C@@H]2C3(C)C)cc1", 3000],
  ["CC12CCN(C(=O)c3ccc4nc[nH]c4c3)C(Cc3ccc(O)cc31)C2(C)C (stereo not shown)", 62],
  ["CC1(C)[C@H]2Cc3c(O)cccc3[C@]1(C)CCN2C(=O)c1ccc2ncsc2c1", 97]
]}

---

target: 11β-HSD1 (Homo sapiens, UniProt P28845); construct: detecting cortisol generated from cortisterone by human liver microsomes; from tissue; host or cells: human liver microsomes; experiment: In vitro inhibition of 11β-HSD1, HTRF detection of cortisol generated from cortisone by human liver microsomes; format: biochemical; conditions: 11β-HSD IC50 (nM), 1 hour at 37° C., pH 6.0, NADPH 200 μM, cortisone 80 nM, inhibition relative to carbenoxolone signal
# key: entry, value: IC50
Property name: IC50 (nM)

{"columns": ["Molecule", "Measured"],
 "data": [
  ["CC1(C)[C@H]2Cc3c(O)cccc3[C@]1(C)CCN2C(=O)c1ccncc1Cl [Example 144]", 2560],
  ["C[C@H]1[C@H]2Cc3ccccc3[C@]1(C)CCN2C(=O)c1ccc2nc[nH]c2c1 (racemic) [Example 77]", 144],
  ["CN(C)S(=O)(=O)c1ccc2c(c1)C[C@H]1N(C(=O)c3ccc4nc[nH]c4c3)CC[C@]2(C)C1(C)C [Example 237]", 916],
  ["CC1(C)[C@H]2Cc3c(O)cccc3[C@]1(C)CCN2C(=O)c1cc2ccccc2[nH]1 [Example 116]", 3850],
  ["Cn1cnc2cc3c(cc21)C[C@H]1N(C(=O)c2ccc4nc[nH]c4c2)CC[C@]3(C)C1(C)C [Example 240]", 51],
  ["Cn1cnc2ccc(C(=O)N3CC[C@@]4(C)c5cccc(O)c5C[C@@H]3C4(C)C)cc21 [Example 81]", 463],
  ["C[C@@H]1[C@H]2Cc3cc(C#N)ccc3[C@]1(C)CCN2C(=O)c1ccc2nc[nH]c2c1 [Example 227]", 25],
  ["CC1(C)[C@H]2Cc3ccccc3[C@]1(C)CCN2C(=O)c1ccc2[nH]ncc2c1 [Example 293]", 27],
  ["CNC(=O)c1cccc(C(=O)N2CC[C@@]3(C)c4cccc(O)c4C[C@@H]2C3(C)C)c1 [Example 39]", 1590],
  ["CC(C)(O)c1cccc(C(=O)N2CC[C@@]3(C)c4ccccc4C[C@@H]2C3(C)C)c1 [Example 317]", 217],
  ["CC1(C)[C@H]2Cc3c(C(=O)O)cccc3[C@]1(C)CCN2C(=O)c1ccc2nc[nH]c2c1 [Example 152]", 4670],
  ["CC1(C)[C@H]2Cc3ccccc3[C@]1(C)CCN2C(=O)c1cc(Cl)c(N)c(Cl)c1 [Example 283]", 55],
  ["CCN(CC)Cc1ccc(C(=O)N2CC[C@@]3(C)c4cccc(O)c4C[C@@H]2C3(C)C)cc1 [Example 119]", 1550],
  ["CC1(C)[C@H]2Cc3c(O)cccc3[C@]1(C)CCN2C(=O)c1ccc2nn[nH]c2c1 [Example 21]", 669],
  ["Cn1nc(C(=O)N2CC[C@@]3(C)c4cccc(O)c4C[C@@H]2C3(C)C)c2ccccc21 [Example 194]", 642],
  ["CC(=O)Nc1ccc2c(c1)CC1N(C(=O)c3ccc4nc[nH]c4c3)CCC2(C)C1(C)C (stereo not shown) [Example 179]", 199],
  ["CC1(C)[C@H]2Cc3c(O)cccc3[C@]1(C)CCN2C(=O)c1ccc2c(c1)NCC(=O)N2 [Example 44]", 200],
  ["CC1(C)[C@H]2Cc3cc4nc(-c5ccnnc5)[nH]c4cc3[C@]1(C)CCN2C(=O)c1ccc2nc[nH]c2c1 [Example 276]", 34],
  ["CC1(C)[C@H]2Cc3c(O)cccc3[C@]1(C)CCN2C(=O)c1ccc2scnc2c1 [Example 45]", 384],
  ["Cc1occc1C(=O)N1CC[C@@]2(C)c3cccc(O)c3C[C@@H]1C2(C)C [Example 180]", 1320],
  ["CC1(C)[C@H]2Cc3ccccc3[C@]1(C)CCN2C(=O)c1c[nH]c2ccccc12 [Example 259]", 115],
  ["O=C(c1ccc2nc[nH]c2c1)N1CCC2CC1Cc1ccccc12 (stereo not shown) [Example 60]", 228],
  ["CC1(C)[C@H]2Cc3ccccc3[C@]1(C)CCN2C(=O)c1ccc2nc[nH]c2c1 (racemic) [Example 82]", 56],
  ["C[C@@H]1[C@H]2Cc3ccc(-c4ccn(C)c(=O)c4)cc3[C@]1(C)CCN2C(=O)c1ccc2nc[nH]c2c1 [Example 279]", 52],
  ["CC1(C)[C@H]2Cc3c(O)cccc3[C@]1(C)CCN2C(=O)c1c[nH]c2ccc(F)cc12 [Example 193]", 360],
  ["CC1(C)[C@H]2Cc3c(C(N)=O)cccc3[C@]1(C)CCN2C(=O)c1ccc2nc[nH]c2c1 [Example 160]", 2180],
  ["COc1cccc(C(=O)N2CC[C@@]3(C)c4cccc(O)c4C[C@@H]2C3(C)C)c1 [Example 11]", 530],
  ["CC12CCN(C(=O)c3ccc4[nH]cnc4c3)C(Cc3cc(/C(N)=N/O)ccc31)C2(C)C (stereo not shown) [Example 175]", 344],
  ["CC1(C)[C@H]2Cc3ccccc3[C@]1(C)CCN2C(=O)c1ccc(N)c(F)c1 [Example 296]", 32],
  ["COc1cc2c(cc1C)C[C@@H]1N(C(=O)c3ccc4nc[nH]c4c3)CC[C@@]2(C)C1(C)C (stereo in doubt) [Example 61]", 798],
  ["CC1(C)[C@H]2Cc3ccc(S(C)(=O)=O)cc3[C@]1(C)CCN2C(=O)c1ccc2nc[nH]c2c1 [Example 233]", 144]
]}

Origin of the recorded values: patent US8859580B2
